test: A CellTox Green Cytotoxicity Assay to monitor cytotoxicity in HepG2 cells - 0 hour (AID 1224882); conditions: CellTox Green fluorescence; series mostly up to 76.8 µM; note: nearly all actives have a fitted effect of over 35% in size
Activity calls are given as the source filed them. Calls come from the whole dose curve; as a rule, active = well fitted activation curve with a large enough effect in the repeat runs; inconclusive = weak or mixed curves; inactive = flat fitted curve, though single readings scatter.
Give your call using only these classes: class 1 (active), class 0 (inactive)

Look over these answered cases.
molecule | classification
CCCN(CCC)c1c([N+](=O)[O-])cc(S(N)(=O)=O)cc1[N+](=O)[O-] | class 0
ClCc1ccccc1CCl | class 0
Cc1cc(C(C)(C)c2cc(C)c(O)c(C)c2)cc(C)c1O | class 0
c1ccc(OCC2CO2)cc1 (stereo unspecified) | class 0
Oc1cccc(-c2ccccc2)c1 | class 0

# outcome recorded in this test, key = `CN(C)S(=O)(=O)N(SC(F)(Cl)Cl)c1ccccc1` class 0

Hi, sorry to bother you, what did the test record for `COc1cc(C=O)cc2c1[C@H](COC(N)=O)[C@]1(OC(C)=O)ON2C[C@H]2[C@@H]1N2C(C)=O` ? class 0

Dear all, I need the recorded test outcome for `CC(C)Oc1cccc(NC(=O)c2ccccc2C(F)(F)F)c1` , thank you. class 1

State the result this test recorded for `CC[C@H](C)[C@H]1O[C@]2(C=C[C@@H]1C)C[C@@H]1C[C@@H](C/C=C(\C)[C@@H](O[C@H]3C[C@H](OC)[C@@H](O[C@H]4C[C@H](OC)[C@@H](O)[C@H](C)O4)[C@H](C)O3)[C@@H](C)/C=C/C=C3\CO[C@@H]4[C@H](O)C(C)=C[C@@H](C(=O)O1)[C@]34O)O2` . class 0

###

target: Thyrotropin receptor (Homo sapiens); assay: qHTS assay to identify small molecule antagonists of the thyroid stimulating hormone receptor (TSHR) signaling pathway (AID 1259385); settings: TSHR-HEK293 cAMP HTRF, TSH-stimulated antagonist mode; series mostly up to 92.4 µM; note: nearly all actives have a fitted effect of over 20% in size
Results filed as inconclusive are left out. Activity calls are given as the source filed them. Calls come from the whole dose curve.
The categories you may choose from are active, inactive

compound | classification
CS(=O)(=O)c1ccc(C(=O)C2C(=O)CCCC2=O)c([N+](=O)[O-])c1 | inactive
O=C(CBr)c1ccc(O)cc1 | inactive
c1ccc(OCC2CO2)cc1 (stereo not given) | inactive
C=CCC1=C(C)C(OC(=O)C2C(C=C(C)C)C2(C)C)CC1=O (stereo not given) | active
C[C@H]1CC[C@@H]2[C@@H](C)[C@H]3[C@H](C[C@H]4[C@@H]5CC=C6CC(O[C@@H]7O[C@H](CO)[C@H](O)[C@H](O[C@@H]8O[C@H](CO)[C@@H](O)[C@H](O)[C@H]8O)[C@H]7O[C@H]7O[C@@H](C)[C@H](O)[C@@H](O)[C@H]7O)CC[C@]6(C)[C@H]5CC[C@]34C)N2C1 (stereo not given in full) | active

Outcome? `CC(=O)OC1(c2ccccc2)CCN(CCc2ccccc2)CC1` inactive

Just curious, what result did `CC(C)C(=O)Cl` get here? inactive

Can you look up the reported call for `COP(=O)(CCC(=O)NCO)OC` for me? inactive

I would be grateful if you could indicate the recorded call for `CC(C)(O)c1cnn2c(-c3ccc(F)c(-c4c(F)cccc4C#N)c3)cnc2n1` . inactive

Hi, do you know how `CSCCCN=C=S` came out in this test? inactive

Look up the recorded call for `Oc1ccc2ccc3cccc4ccc1c2c34` in this test. inactive

Just curious, what result did `CC(C)CBr` get here? inactive
